test: acute toxicity in mice (single intraperitoneal administration); conditions: mouse, in vivo, ip; read-out: LD50 (median lethal dose on single administration)
property_name: LD50

> print(dat)
                                   compound    recorded.value
1  N=C(N)NCCCC[C@H](O)CC(=O)NC(OCc1ccccc1)C(=O)NCCCCNCCCN (some centres unmarked)  12.5 to 25 mg/kg
2  N=C(N)NCCCC[C@H](O)CC(=O)NC(OCCO)C(=O)NCCCCNCCCN (some centres unmarked)        > 50 mg/kg

---

assay: cumulative toxicity in mice (maximum tolerated dose, once a day for 6 consecutive days); settings: mouse, in vivo, ip, i.p. once a day for 6 consecutive days, total dose, read-out: Maximum Tolerated Dose (total dose not causing death)
Property: MTD; scope: individual compounds
property_name: MTD

> print(dat)
                                    compound  recorded.value
 1  COC(NC(=O)CCCCCCCCNC(=N)N)C(=O)NCCCCNCCCN (stereo not shown) [Compound 11]      > 75 mg/kg
 2  N=C(N)NCCCCCC(O)CC(=O)NC(O)C(=O)NCCCCNCCCN (stereo not shown) [Compound 20]     > 300 mg/kg
 3  CCOC(NC(=O)C[C@@H](O)CCCCNC(=N)N)C(=O)NCCCCNCCCN (stereo partly shown) [Compound 23]     > 150 mg/kg
 4  CCOC(NC(=O)CCCCCCNC(=N)N)C(=O)NCCCCNCCCN (stereo not shown) [Compound 12]      > 75 mg/kg
 5  N=C(N)NCCCCCCC(O)CC(=O)NC(O)C(=O)NCCCCNCCCN (stereo not shown) [Compound 21]     > 150 mg/kg
 6  N=C(N)NCCCCC=CC(=O)NC(O)C(=O)NCCCCNCCCN (stereo not shown) [Compound 16]     > 150 mg/kg
 7  N=C(N)NCCCCCCC(=O)NC(O)C(=O)NCCCCNCCCN (stereo not shown) [Compound 4]     > 150 mg/kg
 8  N=C(N)NCCCCCC=CC(=O)NC(O)C(=O)NCCCCNCCCN (stereo not shown) [Compound 17]      > 75 mg/kg
 9  CCCCOC(NC(=O)C[C@@H](O)CCCCNC(=N)N)C(=O)NCCCCNCCCN (stereo partly shown) [Compound 24]     > 300 mg/kg
10  N=C(N)NCCCCCCC(=O)NC(OCCO)C(=O)NCCCCNCCCN (stereo not shown) [Compound 14]     > 150 mg/kg
11  N=C(N)NCCCCCCCC(=O)NC(O)C(=O)NCCCCNCCCN (stereo not shown) [Compound 5]     > 150 mg/kg
12  N=C(N)NCCCC(=O)NC(O)C(=O)NCCCCNCCCN (stereo not shown) [Compound 1]     > 300 mg/kg
13  N=C(N)NCCCCCCCCC(=O)NC(O)C(=O)NCCCCNCCCN (stereo not shown) [Compound 6]      > 75 mg/kg
14  N=C(N)NCCCCCCC(=O)NC(OCc1ccccc1)C(=O)NCCCCNCCCN (stereo not shown) [Compound 15]      > 75 mg/kg
15  COC(NC(=O)CCCCCCNC(=N)N)C(=O)NCCCCNCCCN (racemic) [Compound 9]      > 75 mg/kg
16  N=C(N)NCCCCCCC=CC(=O)NC(O)C(=O)NCCCCNCCCN (stereo not shown) [Compound 18]    > 37.5 mg/kg
17  COC(NC(=O)C=CCCCCNC(=N)N)C(=O)NCCCCNCCCN (stereo not shown) [Compound 19]      > 75 mg/kg
18  N=C(N)NCCCCC(=O)NC(O)C(=O)NCCCCNCCCN (stereo not shown) [Compound 2]     > 300 mg/kg
19  COC(NC(=O)C[C@@H](O)CCCCNC(=N)N)C(=O)NCCCCNCCCN (stereo partly shown) [Compound 22]     > 150 mg/kg
